Entry source: patent US10590086B2

# TESTED TARGET: TDO (Homo sapiens, UniProt P48775)
# Sequence (P48775 whole entry): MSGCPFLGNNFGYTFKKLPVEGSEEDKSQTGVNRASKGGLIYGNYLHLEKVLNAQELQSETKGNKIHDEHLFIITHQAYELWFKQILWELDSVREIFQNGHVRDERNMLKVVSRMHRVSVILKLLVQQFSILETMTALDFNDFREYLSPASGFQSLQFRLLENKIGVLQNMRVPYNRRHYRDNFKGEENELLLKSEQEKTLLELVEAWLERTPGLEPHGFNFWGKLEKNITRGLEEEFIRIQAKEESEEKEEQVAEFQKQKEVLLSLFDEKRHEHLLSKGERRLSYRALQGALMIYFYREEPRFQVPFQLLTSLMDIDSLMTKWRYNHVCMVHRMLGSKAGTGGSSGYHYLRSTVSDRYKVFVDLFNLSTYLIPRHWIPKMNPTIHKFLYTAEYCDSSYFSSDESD
# EXPERIMENT: hTDO biochemical coupled assay
# CONDITION SET: 330 μM L-tryptophan, 17 minutes, room temperature; read-out: hTDO biochemical assay pIC50 (converted)
ENDPOINT LABEL: IC50

Observe how each entry below is paired with its result.
NS(=O)(=O)N1CC2(CCN(c3cc(Cl)cc4[nH]ncc34)CC2)C1 [Compound 367] ... < 3.16 µM
CC(=O)N1C2CCC1CN(c1cc(Cl)cc3[nH]ncc13)C2 [Compound 231] ... < 3.16 µM
CC1(C)CN(c2cc(C(F)F)cc3[nH]ncc23)CCN1S(C)(=O)=O [Compound 370] ... < 3.16 µM
CNC(=O)NC1CCN(c2cc(Cl)cc3[nH]ncc23)CC1 [Compound 377] ... < 3.16 µM
NC(=O)C1CCN(c2cc(Cl)cc3[nH]ncc23)CC1 [Compound 226] ... < 3.16 µM

Report the value of IC50 obtained on TDO (Homo sapiens, UniProt P48775) for CNC(=O)C1(C)CCN(c2cc(Cl)cc3[nH]ncc23)CC1 [Compound 382] .
< 3.16 µM

Report the value of IC50 obtained on TDO (Homo sapiens, UniProt P48775) for Cc1nn(C)c2c1CN(c1cc(Cl)cc3[nH]ncc13)CC2 [Compound 376] .
< 3.16 µM

Report the value of IC50 obtained on TDO (Homo sapiens, UniProt P48775) for CC(=O)N1CCN(c2cc(Cl)cc3c(N)n[nH]c23)CC1 [Compound 322] .
> 100 µM

Report the value of IC50 obtained on TDO (Homo sapiens, UniProt P48775) for Cn1cc2c(n1)CCN(c1cc(Cl)cc3[nH]ncc13)C2 [Compound 360] .
< 3.16 µM

Report the value of IC50 obtained on TDO (Homo sapiens, UniProt P48775) for CS(=O)(=O)N1CCC2(CCN(c3cc(Cl)cc4[nH]ncc34)CC2)C1 [Compound 349] .
< 3.16 µM

Report the value of IC50 obtained on TDO (Homo sapiens, UniProt P48775) for Clc1cc(N2CCN(c3ccncc3)CC2)c2cn[nH]c2c1 [Compound 374] .
3.24 to 31.6 µM

----------
Recorded IC50 values for a group of compounds are listed next.
# TESTED TARGET: IDO (Homo sapiens)
# EXPERIMENT: SKOV3 kynurenine cell-based assay (IDO induced by IFN-γ)
# Design: IDO expression was induced in the SKOV3 cells by the addition of 500 ng/ml IFN-γ; endogenous in cells; host or cells: SKOV3 (human ovarian adenocarcinoma), induced with IFN-γ
# CONDITION SET: SKOV3 human ovarian adenocarcinoma cells, 500 ng/ml IFN-γ, 48 hours, 500 μM L-tryptophan; read-out: SKOV3 Kynurenine cell based assay pIC50 (converted)

Determine from records and report IC50 for `CC(=O)N1CC2(CCN(c3cc(Cl)cc4[nH]ncc34)CC2)C1`
3.24 to 31.6 µM

----------
# TESTED TARGET: UniProt:P48775
# EXPERIMENT: hTDO biochemical coupled assay
# CONDITION SET: 330 μM L-tryptophan, 17 minutes, room temperature; read-out: hTDO biochemical assay pIC50 (converted)
ENDPOINT LABEL: IC50

Cc1nc2c([nH]1)CN(c1cc(C(F)(F)F)cc3[nH]ncc13)CC2 ... < 3.16 µM

Next compound, please.
Report the value of IC50 obtained on UniProt:P48775 for `CNC(=O)c1ccc(N2CCN(c3cc(Cl)cc4[nH]ncc34)CC2)cc1` .
< 3.16 µM

----------
# TESTED TARGET: IDO (Homo sapiens)
# EXPERIMENT: SKOV3 kynurenine cell-based assay (IDO induced by IFN-γ)
# Parameters: IDO expression was induced in the SKOV3 cells by the addition of 500 ng/ml IFN-γ; endogenous in cells; host or cells: SKOV3 (human ovarian adenocarcinoma), induced with IFN-γ
# CONDITION SET: SKOV3 human ovarian adenocarcinoma cells, 500 ng/ml IFN-γ, 48 hours, 500 μM L-tryptophan; read-out: SKOV3 Kynurenine cell based assay pIC50 (converted)
# Experimental: Exemplary compounds of the invention were prepared, and tested to determine their effect as TDO and/or IDO inhibitors. […] This coupled enzyme system allowed conversion of N-formylkynurenine produced by TDO or IDO activity to kynurenine which was then quantified by fluorescence following addition of Erhlich's Reagent The protocols for these are set out below. […]
Recorded IC50 values for a group of compounds are listed next.

CNS(=O)(=O)c1ccc(-c2cc(Cl)cc3[nH]ncc23)cc1 [Compound 300] ... 3.24 to 31.6 µM
CNC(=O)CN1CCN(c2cc(Cl)cc3[nH]ncc23)CC1(C)C [Compound 413] ... 3.24 to 31.6 µM
O=C1NCC2(CCN(c3cc(Cl)cc4[nH]ncc34)CC2)N1 [Compound 267] ... 3.24 to 31.6 µM
CC1(C)CN(c2cc(C(F)F)cc3[nH]ncc23)CCN1S(C)(=O)=O [Compound 370] ... < 3.16 µM

Determine from records and report IC50 for O=C1Nc2ccccc2NC12CCN(c1cc(Cl)cc3[nH]ncc13)CC2 [Compound 404]
< 3.16 µM

Determine from records and report IC50 for Clc1cc(N2CCN(c3cccnc3)CC2)c2cn[nH]c2c1 [Compound 375]
3.24 to 31.6 µM

Determine from records and report IC50 for O=C1NC(=O)C2(CCN(c3cc(Br)cc4[nH]ncc34)CC2)N1 [Compound 290]
< 3.16 µM

Determine from records and report IC50 for CC(=O)N(C)c1cc(C2CCN(S(C)(=O)=O)CC2)c2cn[nH]c2c1 [Compound 337]
3.24 to 31.6 µM

Determine from records and report IC50 for O=C1NC2(CCN(c3cc(Cl)cc4[nH]ncc34)CC2)C(=O)N1Cc1ncco1 [Compound 407]
< 3.16 µM

Determine from records and report IC50 for OC(Cc1ccccc1)c1cc(Cl)cc2[nH]ncc12 (stereo not shown) [Compound 281]
3.24 to 31.6 µM

----------
# TESTED TARGET: TDO (Homo sapiens)
# EXPERIMENT: hTDO biochemical coupled assay
# CONDITION SET: 330 μM L-tryptophan, 17 minutes, room temperature; read-out: hTDO biochemical assay pIC50 (converted)
Recorded IC50 values for a group of compounds are listed next.

Observe how each entry below is paired with its result.
CCc1cc(C2CCN(S(C)(=O)=O)CC2)c2cn[nH]c2c1 ... < 3.16 µM
CS(=O)(=O)N1CCC(c2cc(C3CCCC3)cc3[nH]ncc23)CC1 ... > 100 µM

Next compound, please.
Determine from records and report IC50 for `CS(=O)(=O)N1CCN(C2CCN(c3cc(Cl)cc4[nH]ncc34)CC2)CC1`
< 3.16 µM

----------
# TESTED TARGET: IDO (Homo sapiens, UniProt P14902)
# Sequence (P14902 whole entry): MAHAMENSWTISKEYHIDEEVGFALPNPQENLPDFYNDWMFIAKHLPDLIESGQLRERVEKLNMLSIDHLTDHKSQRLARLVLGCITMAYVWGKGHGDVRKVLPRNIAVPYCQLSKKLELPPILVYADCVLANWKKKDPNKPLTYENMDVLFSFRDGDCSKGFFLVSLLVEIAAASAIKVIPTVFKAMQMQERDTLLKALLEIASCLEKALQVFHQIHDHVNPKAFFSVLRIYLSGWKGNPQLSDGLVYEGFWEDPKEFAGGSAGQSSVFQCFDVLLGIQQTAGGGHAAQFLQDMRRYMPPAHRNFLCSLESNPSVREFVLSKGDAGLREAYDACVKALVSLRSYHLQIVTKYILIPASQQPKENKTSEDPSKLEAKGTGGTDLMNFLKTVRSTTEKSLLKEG
# EXPERIMENT: SKOV3 kynurenine cell-based assay (IDO induced by IFN-γ)
# Set-up: IDO expression was induced in the SKOV3 cells by the addition of 500 ng/ml IFN-γ; endogenous in cells; host or cells: SKOV3 (human ovarian adenocarcinoma), induced with IFN-γ
# CONDITION SET: SKOV3 human ovarian adenocarcinoma cells, 500 ng/ml IFN-γ, 48 hours, 500 μM L-tryptophan; read-out: SKOV3 Kynurenine cell based assay pIC50 (converted)
ENDPOINT LABEL: IC50

Determine from records and report IC50 for CS(=O)(=O)N1CCC(c2cc(N3CCCC3)cc3[nH]ncc23)CC1 [Compound 383]
> 100 µM

Determine from records and report IC50 for OC(c1cc(Cl)cc2[nH]ncc12)C1CCOCC1 (stereo not shown) [Compound 299]
> 100 µM

Determine from records and report IC50 for Clc1cc(N2CCC(c3ncco3)CC2)c2cn[nH]c2c1 [Compound 429]
3.24 to 31.6 µM

Determine from records and report IC50 for CC(C)(C)CC(=O)Nc1cccc2[nH]ncc12 [Compound 4]
> 100 µM

----------
# TESTED TARGET: TDO (Homo sapiens, UniProt P48775)
# EXPERIMENT: hTDO biochemical coupled assay
# CONDITION SET: 330 μM L-tryptophan, 17 minutes, room temperature; read-out: hTDO biochemical assay pIC50 (converted)
ENDPOINT LABEL: IC50

Observe how each entry below is paired with its result.
CS(=O)(=O)N1CCC(c2cc(Cl)cc3[nH]ncc23)CC1 ... < 3.16 µM
CC(=O)N(C)c1cc(N2CCN(S(C)(=O)=O)CC2)c2cn[nH]c2c1 ... > 100 µM
CC(=O)N1CCN(c2cc(Cl)cc3c(N)noc23)CC1(C)C ... 32.4 to 100 µM
O=C1NC2(CCN(c3cc(Cl)cc4[nH]ncc34)CC2)C(=O)N1c1ccccc1 ... < 3.16 µM
NS(=O)(=O)N1CCC2(CCN(c3cc(Cl)cc4[nH]ncc34)CC2)C1 ... < 3.16 µM
CN(C)S(=O)(=O)N1CCN(c2cccc3[nH]ncc23)CC1 ... 3.24 to 31.6 µM
Cc1noc(C)c1S(=O)(=O)Nc1cccc2[nH]ncc12 ... 3.24 to 31.6 µM

Next compound, please.
Determine from records and report IC50 for `CN1CCN(c2cc(Cl)cc3[nH]ncc23)CC1=O`
< 3.16 µM
